# Tested on: trichomonal hydrolases
# Assay Name: Experiment 13: hydrolysis of peptide substrates by trichomonal hydrolases at low pH, no vaginal fluid
# Type: biochemical, Trichomonas vaginalis
# Set-up: key: −: No red color produced; +: Clearly visible red color produced; ++: Moderately intense red color produced; +++: Very intense red color produced
# Assay Context: without vaginal fluid; threonine buffer pH 2.4; 2 mM substrate solution; 10 min 25° C.; Fast Garnet
Peptide text beside a SMILES is read from it. * marks the point of attachment. βNA = c1ccc2cc(N*)ccc2c1

Molecule	Color Score
CC(C)C[C@H](N)C(=O)Nc1ccc2ccccc2c1	−
NC(N)=NCCCC(NC(=O)c1ccccc1)C(=O)Nc1ccc2ccccc2c1 (racemic)	−
N=C(N)NCCC[C@H](NC(=O)[C@@H](N)Cc1ccccc1)C(=O)Nc1ccc2ccccc2c1 [Phe-Arg-βNA] (H-Phe-Arg-βNA)	−
